We begin with IC50 values for ACK1 (Homo sapiens, UniProt Q07912), as collected from the published literature.

Record `Cc1ccc(C(=O)Nc2n[nH]c3c2CCCn2cc(C(=O)NCC(C)C)cc2-3)c(C)c1` / ACK1 (Homo sapiens, UniProt Q07912), IC50 recorded as 1410 nM

Record CC(C)Oc1cc(Nc2ncc3c(F)cn(CC4CCCO4)c3n2)ccc1C1CCN(C)CC1 (stereo not drawn) / ACK1 (Homo sapiens, UniProt Q07912), IC50 recorded as < 250 nM

Record `CN1CCN(c2cccc(Nc3ncc4ccn(CC5CCOCC5)c4n3)c2)CC1` / ACK1 (Homo sapiens, UniProt Q07912), IC50 recorded as < 500 nM

Record `CC(C)Oc1cc(N2CCN(C)CC2)ccc1Nc1ncc2ccn(CCc3ccccc3)c2n1` / ACK1 (Homo sapiens, UniProt Q07912), IC50 recorded as < 1000 nM

Record `Cc1ccc(C(=O)Nc2n[nH]c3c2CCn2cc(C(=O)N4CCCCC4)cc2-3)c(C)c1` / ACK1 (Homo sapiens, UniProt Q07912), IC50 recorded as 2200 nM

Record `CC(C)S(=O)(=O)Nc1cccc(-n2ccc3cnc(Nc4ccc(N5CCN(C)CC5)c(OCCO)c4)nc32)c1` / ACK1 (Homo sapiens, UniProt Q07912), IC50 recorded as < 250 nM

Record `O=C(Nc1n[nH]c2c1CCn1cc(C(=O)N3CCCCC3)cc1-2)c1ccccc1Cl` / ACK1 (Homo sapiens, UniProt Q07912), IC50 recorded as 440 nM

Record `O=C(NCCN1CCCC1)c1cc2n(c1)CCc1c(NC(=O)c3ccccc3Cl)n[nH]c1-2` / ACK1 (Homo sapiens, UniProt Q07912), IC50 recorded as 1010 nM

Record `COc1cc(N2CCN(C)CC2)c(F)cc1Nc1ncc2ccn(-c3cccc(N4CCCCS4(=O)=O)c3)c2n1` / ACK1 (Homo sapiens, UniProt Q07912), IC50 recorded as < 250 nM

Record `Cc1cnc(Nc2ccc(OCCN3CCCC3)cc2)nc1NCc1ccco1` / ACK1 (Homo sapiens, UniProt Q07912), IC50 recorded as 38.8 nM

Record `CC(C)Oc1cc(Nc2ncc3ccn(CC4CCOCC4)c3n2)ccc1N1CCN(C)CC1` / ACK1 (Homo sapiens, UniProt Q07912), IC50 recorded as < 250 nM

Record `Cc1ccc(Nc2ncc3cc(-c4cc(NC(=O)c5cccc(C(F)(F)F)c5)ccc4C)nc(Cl)c3n2)cn1` / ACK1 (Homo sapiens, UniProt Q07912), IC50 recorded as 100 to 1000 nM

Record `O=C(NCc1ccccn1)c1cc2n(c1)CCCc1c(NC(=O)c3ccccc3Cl)n[nH]c1-2` / ACK1 (Homo sapiens, UniProt Q07912), IC50 recorded as 4840 nM

Record `O=C(Nc1n[nH]c2c1CCn1cc(C(=O)N3CCOCC3)cc1-2)c1ccccc1Cl` / ACK1 (Homo sapiens, UniProt Q07912), IC50 recorded as 1430 nM

Record `CC(C)Oc1cc(Nc2ncc3ccn(-c4cccc(NS(=O)(=O)C(C)C)c4)c3n2)ccc1-c1cnn(C)c1` / ACK1 (Homo sapiens, UniProt Q07912), IC50 recorded as < 250 nM

Record `COc1cc(N2CCN(C)CC2)ccc1Nc1ncc(Cl)c(NC[C@H]2CCCO2)n1` / ACK1 (Homo sapiens, UniProt Q07912), IC50 recorded as 39 nM

Record `CCCN1CCN(C(=O)c2cc3n(c2)CCc2c(NC(=O)c4ccccc4F)n[nH]c2-3)CC1` / ACK1 (Homo sapiens, UniProt Q07912), IC50 recorded as 3060 nM

Record `CN1CCN(c2ccc(Nc3ncc4ccn(C[C@H]5CCCO5)c4n3)cc2F)CC1` / ACK1 (Homo sapiens, UniProt Q07912), IC50 recorded as < 250 nM

Record `Cc1ccc(NC(=O)c2cccc(C(F)(F)F)c2)cc1N1Cc2cnc(NC3CCCCC3)nc2N(C)C1=O` / ACK1 (Homo sapiens, UniProt Q07912), IC50 recorded as 45 to 100 nM

Record `CN1CCN(c2ccc(Nc3ncc4ccn(CC5CCOCC5)c4n3)cc2F)CC1` / ACK1 (Homo sapiens, UniProt Q07912), IC50 recorded as < 250 nM

Record CN1CCN(c2ccc(Nc3ncc4ccn(CC5CCCO5)c4n3)cc2)CC1 (stereo not drawn) / ACK1 (Homo sapiens, UniProt Q07912), IC50 recorded as < 250 nM

Record `Cc1ccc(NC(=O)c2cccc(C(F)(F)F)c2)cc1-c1cc2cnc(NC3CC3)nc2c(=O)[nH]1` / ACK1 (Homo sapiens, UniProt Q07912), IC50 recorded as < 100 nM

Record `CC(C)CNC(=O)c1cc2n(c1)CCCc1c(NC(=O)c3ccccc3Cl)n[nH]c1-2` / ACK1 (Homo sapiens, UniProt Q07912), IC50 recorded as 550 nM

Record `COc1cc(Nc2ncc3ccn(-c4cccc(NS(=O)(=O)C(C)C)c4)c3n2)ccc1-c1cnn(C)c1` / ACK1 (Homo sapiens, UniProt Q07912), IC50 recorded as < 250 nM

Record `O=C(NCC1CC1)c1cc2n(c1)CCCc1c(NC(=O)c3c(Cl)cccc3Cl)n[nH]c1-2` / ACK1 (Homo sapiens, UniProt Q07912), IC50 recorded as 2820 nM

Record `COc1cc(N2CCN(C)CC2)ccc1Nc1ncc2ccn(-c3cccc(NS(=O)(=O)C(C)C)c3)c2n1` / ACK1 (Homo sapiens, UniProt Q07912), IC50 recorded as < 250 nM

Record `CCCN1CCN(C(=O)c2cc3n(c2)CCc2c(NC(=O)c4ccccc4Cl)n[nH]c2-3)CC1` / ACK1 (Homo sapiens, UniProt Q07912), IC50 recorded as 1380 nM

Record `CN1CCN(c2cc(Cl)c(Nc3ncc4ccn(CC5CCOCC5)c4n3)cc2F)CC1` / ACK1 (Homo sapiens, UniProt Q07912), IC50 recorded as < 250 nM

Record `COc1cc(Nc2ncc3c(C)cn(CC4CCOCC4)c3n2)ccc1-c1cnn(C)c1` / ACK1 (Homo sapiens, UniProt Q07912), IC50 recorded as < 250 nM

Record `O=C(NCc1ccncc1)c1cc2n(c1)CCc1c(NC(=O)c3ccccc3Cl)n[nH]c1-2` / ACK1 (Homo sapiens, UniProt Q07912), IC50 recorded as 1920 nM

Record `Cc1cn(CC2CCOCC2)c2nc(Nc3ccc(N4CCN(C)CC4)c(OC(C)C)c3)ncc12` / ACK1 (Homo sapiens, UniProt Q07912), IC50 recorded as < 250 nM

Record `C=CCNC(=O)c1cc2n(c1)CCCc1c(NC(=O)c3ccc(C)cc3C)n[nH]c1-2` / ACK1 (Homo sapiens, UniProt Q07912), IC50 recorded as 3980 nM

Record `COc1cc2ncnc(Nc3ccc(NC(=O)c4ccccc4)cc3)c2cc1OC` / ACK1 (Homo sapiens, UniProt Q07912), IC50 recorded as 5 nM
